- Tested on: Serratia marcescens K904 PosmB-luxCDABE reporter (pMQ747)
- protocol.text: PosmB-lux reporter fold induction (RLU/OD600 relative to no-compound control), highest over Biolog concentrations; higher = stronger Rcs reporter activation
- condition.notes: wild type K904; 4 h
Answer each item with its documented PosmB-lux reporter fold induction.
Just the number.

Exercise: For Serratia marcescens K904 PosmB-luxCDABE reporter (pMQ747), provide PosmB-lux reporter fold induction of C/C=C/C=C/C(=O)O [sorbic acid] (Biolog plate: PM16, well positions: H9-12) please.
Solution: 2.12

Exercise: What would you report for NC(CO)C(=O)NNCc1ccc(O)c(O)c1O (stereo not drawn) [Benserazide] (Biolog plate: PM20, well positions: A9-12) ?
Solution: 1.16

Exercise: What would you report for CN(C)[C@@H]1C(O)=C(C(=O)NCN2CCCC2)C(=O)[C@@]2(O)C(O)=C3C(=O)c4c(O)cccc4[C@@](C)(O)[C@H]3C[C@@H]12 [Rolitetracycline] (Biolog plate: PM13, well positions: D9-12) ?
Solution: 1.49

----------
- Test system: Serratia marcescens K904 PosmB-luxCDABE reporter (pMQ747)
- protocol.text: PosmB-lux reporter fold induction (RLU/OD600 relative to no-compound control), highest over Biolog concentrations; higher = stronger reporter activation
- condition.notes: ΔrcsB mutant CMS5177; 4 h
result.type: PosmB-lux reporter fold induction
Just the number.

Exercise: Which PosmB-lux reporter fold induction is listed for CCC[C@@H]1C[C@@H](C(=O)N[C@@H]([C@H]2O[C@H](SC)[C@H](O)[C@@H](O)[C@H]2O)[C@@H](C)O)N(C)C1 [Lincomycin] (Biolog plate: PM11, well positions: A9-12) ?
Solution: 2.28

Exercise: What would you report for Cc1ncc([N+](=O)[O-])n1CC(O)CCl (stereo not given) [ornidazole] (Biolog plate: PM20, well positions: C9-12) ?
Solution: 1.59

Exercise: What would you report for CO[C@H]1C[C@H](O[C@H]2[C@H](C)[C@@H](O[C@@H]3O[C@H](C)C[C@H](N(C)C)[C@H]3OC(C)=O)[C@@H](C)C[C@@]3(CO3)C(=O)[C@H](C)[C@@H](OC(C)=O)[C@@H](C)[C@@H](C)OC(=O)[C@@H]2C)O[C@@H](C)[C@@H]1OC(C)=O [troleandomycin] (Biolog plate: PM20, well positions: H9-12) ?
Solution: 2.33

Exercise: What would you report for CC(Oc1ccccc1)C(=O)N[C@@H]1C(=O)N2[C@@H]1SC(C)(C)[C@@H]2C(=O)O (stereo not given in full) [phenethicillin] (Biolog plate: PM19, well positions: F1-4) ?
Solution: 1.15

Exercise: What would you report for CO/N=C(\C(=O)N[C@@H]1C(=O)N2C(C(=O)O)=C(COC(N)=O)CS[C@H]12)c1ccco1 [Cefuroxime] (Biolog plate: PM13, well positions: D1-4) ?
Solution: 1.42

Exercise: What would you report for S=c1nc[nH]c2nc[nH]c12 [6-Mercapto-purine] (Biolog plate: PM13, well positions: C1-4) ?
Solution: 1.22

Exercise: What would you report for CN(C)[C@@H]1C(O)=C(C(N)=O)C(=O)[C@@]2(O)C(O)=C3C(=O)c4c(O)ccc(Cl)c4[C@@H](O)[C@H]3C[C@@H]12 [Demeclocycline] (Biolog plate: PM11, well positions: D5-8) ?
Solution: 1.59

Exercise: What would you report for Nc1ccc(S(=O)(=O)Nc2ccc(Cl)nn2)cc1 [sulfachloro-pyridazine] (Biolog plate: PM17, well positions: C5-8) ?
Solution: 1.63

Exercise: What would you report for CC(=O)O[C@H]1C[C@@]2(C)[C@@H](C[C@@H](O)[C@H]3[C@@]4(C)CC[C@@H](O)[C@@H](C)[C@@H]4CC[C@@]32C)/C1=C(\CCC=C(C)C)C(=O)O [Fusidic acid] (Biolog plate: PM15, well positions: C5-8) ?
Solution: 1.43

Exercise: What would you report for [Cl][Mn][Cl] [Manganese chloride] (Biolog plate: PM13, well positions: G5-8) ?
Solution: 1.41

----------
- Test system: Serratia marcescens K904 PosmB-luxCDABE reporter (pMQ747)
- protocol.text: PosmB-lux reporter fold induction (RLU/OD600 relative to no-compound control), highest over Biolog concentrations; higher = stronger Rcs reporter activation
- condition.notes: wild type K904; 4 h
Kind request: treat 2 as inclusive, so PosmB-lux reporter fold induction at 2 or higher is Fulfilled, anything lower is Not fulfilled.

Exercise: Hi team, for [Na+].[Na+].[O]=[W](=[O])([O-])[O-] [sodium tungstate] (Biolog plate: PM17, well positions: E9-12) , is the recorded PosmB-lux reporter fold induction at or above 2?
Solution: Not fulfilled

Exercise: What would you report for CC(=O)O[C@H]1C[C@@]2(C)[C@@H](C[C@@H](O)[C@H]3[C@@]4(C)CC[C@@H](O)[C@@H](C)[C@@H]4CC[C@@]32C)/C1=C(\CCC=C(C)C)C(=O)O [Fusidic acid] (Biolog plate: PM15, well positions: C5-8) ?
Solution: Not fulfilled

Exercise: What would you report for NC(CO)C(=O)NO (racemic) [D,L-Serine hydroxamate] (Biolog plate: PM12, well positions: C9-12) ?
Solution: Fulfilled

Exercise: What would you report for Oc1c(I)cc(Cl)c2cccnc12 [5-chloro-7-iodo-8-hydroxy-quinoline] (Biolog plate: PM16, well positions: A9-12) ?
Solution: Not fulfilled

Exercise: What would you report for OB(O)O [Boric acid] (Biolog plate: PM14, well positions: C1-4) ?
Solution: Not fulfilled

----------
- Test system: Serratia marcescens K904 PosmB-luxCDABE reporter (pMQ747)
- protocol.text: PosmB-lux reporter fold induction (RLU/OD600 relative to no-compound control), highest over Biolog concentrations; higher = stronger Rcs reporter activation
- condition.notes: wild type K904; 4 h
Answer each item with its documented PosmB-lux reporter fold induction.
Just the number.

Exercise: Which PosmB-lux reporter fold induction is listed for CCn1cc(C(=O)O)c(=O)c2cc(F)c(N3CCNCC3)nc21 [Enoxacin] (Biolog plate: PM11, well positions: E5-8) ?
Solution: 2.1

Exercise: What would you report for CCn1nc(C(=O)O)c(=O)c2cc3c(cc21)OCO3 [cinoxacin] (Biolog plate: PM16, well positions: D9-12) ?
Solution: 2.46

Exercise: What would you report for C[n+]1c2cc(N)ccc2cc2ccc(N)cc21.Nc1ccc2cc3ccc(N)cc3nc2c1 [Acriflavine] (Biolog plate: PM14, well positions: A2-4) ?
Solution: 1.45

Exercise: What would you report for CC(C)(C)CC(C)(C)c1ccc(OCCOCC[N+](C)(C)Cc2ccccc2)cc1 [Benzethonium chloride] (Biolog plate: PM12, well positions: E9-12) ?
Solution: 2.27

Exercise: What would you report for CSc1ccc2c(c1)N(CCC1CCCCN1C)c1ccccc1S2 (configuration not stated) [thioridazine] (Biolog plate: PM20, well positions: C1-4) ?
Solution: 0.902

Exercise: What would you report for Cc1cc(O)cc(C)c1Cl [chloroxylenol] (Biolog plate: PM16, well positions: H5-8) ?
Solution: 2.08

Exercise: What would you report for CC1(C)S[C@@H]2[C@H](NC(=O)C(C(=O)O)c3ccccc3)C(=O)N2[C@H]1C(=O)O (some centres not stated) [Carbenicillin] (Biolog plate: PM12, well positions: A9-12) ?
Solution: 2.2

Exercise: What would you report for CN[C@@H]1[C@H](O[C@H]2[C@H](O[C@H]3[C@H](O)[C@@H](O)[C@H](NC(=N)N)[C@@H](O)[C@@H]3NC(=N)N)O[C@@H](C)[C@]2(O)CO)O[C@@H](CO)[C@H](O)[C@H]1O [dihydro-streptomycin] (Biolog plate: PM19, well positions: G5-8) ?
Solution: 1.47

Exercise: What would you report for CC1=CC(=O)c2ccccc2C1=O [Menadione] (Biolog plate: PM15, well positions: G9-12) ?
Solution: 3.74

Exercise: What would you report for C[n+]1cc2c3c(ccc2c2ccc4cc5c(cc4c21)OCO5)OCO3 [Sanguinarine] (Biolog plate: PM14, well positions: A9-12) ?
Solution: 1.83

Exercise: What would you report for CN(C)[C@@H]1C(O)=C(C(N)=O)C(=O)[C@@]2(O)C(O)=C3C(=O)c4c(O)cccc4[C@@](C)(O)[C@H]3C[C@@H]12 [Tetracycline] (Biolog plate: PM12, well positions: A5-8) ?
Solution: 1.53

Exercise: What would you report for C1COCCOCCOCCOCCOCCO1 [18-crown-6 ether] (Biolog plate: PM20, well positions: D9-12) ?
Solution: 2.22

Exercise: What would you report for CC(C)c1nc2nc(N)nc(N)c2nc1C(C)C [2,4-Diamino-6,7-diisopropyl-pteridine] (Biolog plate: PM12, well positions: E1-4) ?
Solution: 2.38

Exercise: What would you report for COc1cc(NS(=O)(=O)c2ccc(N)cc2)ncn1 [sulfamono-methoxine] (Biolog plate: PM17, well positions: C9-12) ?
Solution: 1.35

Exercise: What would you report for CCC(C)CCCC(=O)N[C@@H](CCN)C(=O)N[C@H](C(=O)N[C@@H](CCN)C(=O)N[C@H]1CCNC(=O)[C@H]([C@@H](C)O)NC(=O)[C@H](CCN)NC(=O)[C@H](CCN)NC(=O)[C@H](CC(C)C)NC(=O)[C@@H](CC(C)C)NC(=O)[C@H](CCN)NC1=O)[C@@H](C)O (some centres not stated) [Colistin] (Biolog plate: PM11, well positions: C5-8) ?
Solution: 2.54

Exercise: What would you report for Cn1c(=O)c2c(ncn2C)n(C)c1=O [caffeine] (Biolog plate: PM17, well positions: H5-8) ?
Solution: 1.68

Exercise: What would you report for Cc1ncc([N+](=O)[O-])n1CC(O)CCl (configuration not stated) [ornidazole] (Biolog plate: PM20, well positions: C9-12) ?
Solution: 1.61

Exercise: What would you report for CN(C)c1ccc(C(=C2C=CC(=[N+](C)C)C=C2)c2ccc(N(C)C)cc2)cc1 [crystal violet] (Biolog plate: PM20, well positions: E1-4) ?
Solution: 0.912

Exercise: What would you report for c1cnc2c(c1)ccc1cccnc12 [1,10-Phenanthroline] (Biolog plate: PM15, well positions: C9-12) ?
Solution: 1.36

Exercise: What would you report for NCC[C@H](O)C(=O)N[C@@H]1C[C@H](N)[C@@H](O[C@H]2O[C@H](CN)[C@@H](O)[C@H](O)[C@H]2O)[C@H](O)[C@H]1O[C@H]1O[C@H](CO)[C@@H](O)[C@H](N)[C@H]1O [Amikacin] (Biolog plate: PM11, well positions: A2-4) ?
Solution: 1.4

Exercise: What would you report for Cc1cc(C)nc(NS(=O)(=O)c2ccc(N)cc2)n1 [Sulfamethazine] (Biolog plate: PM12, well positions: D5-8) ?
Solution: 3.6

Exercise: What would you report for COc1ccc(C[C@H](N)C(=O)N[C@H]2[C@@H](O)[C@H](n3cnc4c(N(C)C)ncnc43)O[C@@H]2CO)cc1 [Puromycin] (Biolog plate: PM15, well positions: F9-12) ?
Solution: 1.9
